// provenance: PubChem BioAssay (NCI)

# System: COLO 205 colon
# Protocol Text: NCI tumour cell line growth inhibition, 48 h; in the data active means GI50 below about 0.43 µM; inactive means the rest
Choose the fitting class; nothing outside active, inactive is accepted.

{"Compound": "CN(C)CC1CCC2=C(C1=O)C(c1ccc(Cl)c(Cl)c1)C1=C(CCC(CN(C)C)C1=O)O2 (centres undefined)", "Class Label": "inactive"}

Query compound follows.
For O=C1C(SCCO)=C(SCCO)C(=O)N1c1ccc(-c2ccccc2)cc1 , which call appears in the assay record?
inactive

---

# System: SN12C renal
# Protocol Text: NCI tumour cell line growth inhibition, 48 h
Metric: TGI

Solved entries (count: 4):
{"Molecule": "CN(C)c1ccc(C(=NO)c2ccc(N(C)C)cc2)cc1", "System": "SN12C renal", "TGI": "> 100 µM"}
{"Molecule": "CCOC(=O)C1CCCCN1C(=O)c1ccc(Nc2cnc3cc(C(F)(F)F)ccc3n2)cc1 (stereo not given)", "System": "SN12C renal", "TGI": "31.5 µM"}
{"Molecule": "Nc1c(C(=O)c2cccc(C#CCO)c2)cnn1-c1ccc(F)cc1", "System": "SN12C renal", "TGI": "> 25 µM"}
{"Molecule": "CCN1CN(c2ccccc2)C2(CCN(CC(CC3OCCO3)c3ccc(F)cc3)CC2)C1=O (stereo not given)", "System": "SN12C renal", "TGI": "> 89.5 µM"}

Would you kindly look at the next entry?
Return reported TGI; argument: CCSc1nc(SCC)c2c(-c3ccc(OC)c(OC)c3)c(C#N)c(SCC)nc2n1
56.7 µM

---

# System: SF-539 CNS
# Protocol Text: NCI tumour cell line growth inhibition, 48 h
// TGI lookup, one value per entry

Give the measured TGI of CN(C)C(=O)c1ccc([N+](=O)[O-])cc1 .
> 100 µM

Returns the measured TGI for the input compound. Input: O=C(N/N=C/c1ccccc1)c1cccc2nc3ccccc3nc12
> 100 µM

I am curious: what TGI value has been reported for CNC1(C(=O)O)CC1 ?
> 100 µM

---

# System: MCF7 breast
# Protocol Text: NCI tumour cell line growth inhibition, 48 h; in the data active = GI50 below about 0.43 µM; inactive = the rest
Outcome field: choose from active, inactive

Worked examples follow.
{"Compound": "CC(C)CCNCC(O)Cn1c2ccccc2c2ccccc21 (stereo not given)", "Class Label": "inactive"}
{"Compound": "c1ccc2[nH]c(-c3cc(-c4ccc5c(c4)OCO5)n[nH]3)nc2c1", "Class Label": "inactive"}
{"Compound": "Cc1nn(-c2ccc(Cl)cc2)c2nc3c(nc12)C(=O)C(=O)c1ccccc1-3", "Class Label": "inactive"}
{"Compound": "CCOC(=O)C1CCCCN1C(=O)c1ccc(Nc2cnc3cc(C(F)(F)F)ccc3n2)cc1 (stereo not given)", "Class Label": "inactive"}
{"Compound": "Cc1nn(C)c(COc2ccc(N3CCN(S(=O)(=O)N(C)C)CC3)cc2)c1-c1cccc2c(CCCOc3cccc4ccccc34)c(C(=O)O)n(CCN3CCOCC3)c12", "Class Label": "inactive"}
{"Compound": "CC(=O)[O][Sn]([CH2]c1ccccc1)([CH2]c1ccccc1)[CH2]c1ccccc1", "Class Label": "inactive"}
{"Compound": "Cc1nn(-c2ccc([N+](=O)[O-])cc2)c2ncnc(N/N=C/c3ccccc3O)c12", "Class Label": "active"}
{"Compound": "COc1ccccc1CNCCCN1C(=O)c2ccc3c4c(ccc(c24)C1=O)C(=O)N(CCCN)C3=O", "Class Label": "active"}
{"Compound": "Nc1c(C(=O)c2cccc(C#CCO)c2)cnn1-c1ccc(F)cc1", "Class Label": "inactive"}

Attention now turns to another entry.
Answer briefly: the call reported for COc1cc(OC)c2[nH]c3c(O)c(-c4c(C)cc5c([nH]c6c(OC)cc(OC)cc65)c4O)c(C)cc3c2c1 in this assay.
inactive

---

# Tested on: NCI-H522 lung
# Protocol Text: NCI tumour cell line growth inhibition, 48 h
In this section, each of the compounds is paired with its reported GI50.

Here are 3 compounds together with their reported answers.
{"Compound": "CCOC(=O)C1CCCCN1C(=O)c1ccc(Nc2cnc3cc(C(F)(F)F)ccc3n2)cc1 (stereo not given)", "System": "NCI-H522 lung", "GI50": "30400 nM"}
{"Compound": "COc1ccc(CC(=O)c2ccc(O)cc2O)cc1", "System": "NCI-H522 lung", "GI50": "60800 nM"}
{"Compound": "CCSc1nc(SCC)c2c(-c3ccc(OC)c(OC)c3)c(C#N)c(SCC)nc2n1", "System": "NCI-H522 lung", "GI50": "41100 nM"}

// map CCc1ccc2c(c1)C(=O)c1c-2n(CCCN=[N+]=[N-])c(=O)c2cc(OC)c(OC)cc12 to recorded GI50 (system: NCI-H522 lung)
49000 nM

NCI-H522 lung / GI50 / O=C1NOC(c2ccc(O)cc2)(c2ccc(O)cc2)c2ccccc21 : value?
> 100000 nM

Recall the recorded GI50 for Cc1ccc(-c2csc(NC(=O)N3CCN(c4cc5c(cc4F)c(=O)c(C(=O)O)cn5C4CC4)CC3)n2)cc1 with NCI-H522 lung and state it.
291 nM

Hello, I am looking for reported GI50 with NCI-H522 lung for Nc1ncnc2c1c(-c1ccc(Oc3ccccc3)cc1)nn2C[C@@H]1SSC[C@H]1O . Could you help?
2080 nM

Hello, I am looking for reported GI50 with NCI-H522 lung for COC(=O)C1=C(C)NC(C)=C(C(=O)OCC(C)C)C1c1ccccc1[N+](=O)[O-] (stereo not given) . Could you help?
2400 nM

State its GI50 on NCI-H522 lung: O=C(Nc1ccc(Oc2cccc(F)c2)c(Cl)c1)c1cnccn1
1190 nM

What is its GI50 for NCI-H522 lung? Entry: COc1ccc(C(=O)/C=C/c2cccc(Nc3ccnc4cc(Cl)ccc34)c2)cc1
1880 nM

---

# System: IGROV1 ovarian
# Protocol Text: NCI tumour cell line growth inhibition, 48 h
Where a SMILES comes first, the peptide text is derived from it. [ ]: non-standard residue; d: D form.
Listed next: entries and their corresponding TGI.

Please review the entries below; each comes with its answer.
{"Compound": "COC(=O)C1=C(C)NC(C)=C(C(=O)OCC(C)C)C1c1ccccc1[N+](=O)[O-] (stereo unspecified)", "TGI": "25.9 µM"}
{"Compound": "O=C1NOC(c2ccc(O)cc2)(c2ccc(O)cc2)c2ccccc21", "TGI": "> 100 µM"}
{"Compound": "COc1ccc(C2=C(c3ccc(OC)c(OC)c3)C(=O)N3CCCC3C2)cc1 (stereo unspecified)", "TGI": "> 100 µM"}
{"Compound": "CNc1ccc(C(=O)CC(O)CCC(C)C2OC(=O)CC(O)CC(=O)CC(O)CC(O)CC(O)CC(O)CC3(O)CC(O)C(C(=O)NCCN4CCOCC4)C(CC(OC4OC(C)C(O)C(N)C4O)/C=C/C=C/C=C/C=C\\C=C/C=C/C=C/C2C)O3)cc1 (stereo unspecified)", "TGI": "> 100 µM"}
{"Compound": "CC(C)C[C@H](NC(=O)[C@H](CC(C)C)NC(=O)[C@@H](Cc1c[nH]c2ccccc12)NC(=O)[C@H](Cc1ccccc1)NC(=O)[C@@H](Cc1c[nH]c2ccccc12)NC(=O)[C@H](CCC(N)=O)NC(=O)[C@H](CCC(N)=O)NC(=O)[C@H]1CCCN1C(=O)[C@@H](N)CCCCN)C(N)=O (H-K[dP]QQ[dW]F[dW]LL-NH2)", "TGI": "> 100 µM"}

Let us move to another entry and its TGI.
GET /values?readout=TGI&item= CN1CCc2[nH]nc(-c3n[nH]c4c3CN(C)CC4)c2C1
> 100 µM

---

# Test system: 786-0 renal
# Protocol Text: NCI tumour cell line growth inhibition, 48 h; in the data active means GI50 below about 0.43 µM; inactive means the rest
Answer with one of the outcomes given here: active, inactive

Worked examples follow.
{"Molecule": "CCOC(=O)C1CCCCN1C(=O)c1ccc(Nc2cnc3cc(C(F)(F)F)ccc3n2)cc1 (stereo unspecified)", "System": "786-0 renal", "Class Label": "inactive"}
{"Molecule": "Cc1ccc(C(=O)NC2CCC2)cc1-c1ccc(C(=O)NCC2CC2)cc1", "System": "786-0 renal", "Class Label": "inactive"}
{"Molecule": "COc1cnc2c(c1)C(=O)c1c-2n(CCCNC2=NCCS2)c(=O)c2cc(Cl)ccc12", "System": "786-0 renal", "Class Label": "active"}

GET /call?item= O=S(=O)(c1cccc2c(I)cccc12)N1CCCNCC1 returns the recorded outcome of this test.
inactive

Can you look up the reported call for CC(=O)[O][Sn]([CH2]c1ccccc1)([CH2]c1ccccc1)[CH2]c1ccccc1 for me?
inactive

Outcome? CC(=O)[CH-]C(=O)c1ccccc1.CC(=O)[CH-]C(=O)c1ccccc1.CC(=O)[CH-]C(=O)c1ccccc1.[In+3]
inactive

---

In this section, each of the molecules is paired with its reported GI50.
# System: EKVX NSCLC
# Protocol Text: NCI tumour cell line growth inhibition, 48 h

Worked cases, GI50 given:
{"Molecule": "COC(=N)c1c(N)[n+]([O-])c2ccc(F)cc2[n+]1[O-]", "GI50": "99.1 µM"}
{"Molecule": "COc1cnc2c(c1)C(=O)c1c-2n(CCCNC2=NCCS2)c(=O)c2cc(Cl)ccc12", "GI50": "1.64 µM"}
{"Molecule": "Cn1cccc1-c1cc(-c2ccc(Br)cc2)[nH]c(=O)c1C#N", "GI50": "34.5 µM"}

Entry CCN1C(=O)N(CC)C2C1NN=c1s/c(=C\c3ccccn3)c(=O)n12 (stereo not drawn) has what GI50?
4.45 µM

Sample Cc1nn(-c2ccc(Cl)cc2)c2nc3c(nc12)C(=O)C(=O)c1ccccc1-3 — what was its GI50?
7.36 µM

Fill in: GI50 of N#CSCc1ccc(Cl)c(CSC#N)c1 is ___
20.7 µM

Could you tell me which GI50 is on file for COC(=O)C1=C(C)NC(C)=C(C(=O)OCC(C)C)C1c1ccccc1[N+](=O)[O-] (stereo not drawn) ?
8.06 µM

What does the record list as GI50 for COc1cc(/C=C/C(=O)c2ccc(F)cc2)ccc1OCCCN1CCN(CC(=O)Nc2ccc(Cl)cc2C(=O)c2ccccc2Cl)CC1 ?
31.3 µM
